molecular target: Neuronal acetylcholine receptor; alpha4/beta2 (Rattus norvegicus, UniProt P09483+P12390); experiment: Displacement of [3H]epibatidine from rat alpha4beta2 nAChR
Sequence (P09483 whole entry): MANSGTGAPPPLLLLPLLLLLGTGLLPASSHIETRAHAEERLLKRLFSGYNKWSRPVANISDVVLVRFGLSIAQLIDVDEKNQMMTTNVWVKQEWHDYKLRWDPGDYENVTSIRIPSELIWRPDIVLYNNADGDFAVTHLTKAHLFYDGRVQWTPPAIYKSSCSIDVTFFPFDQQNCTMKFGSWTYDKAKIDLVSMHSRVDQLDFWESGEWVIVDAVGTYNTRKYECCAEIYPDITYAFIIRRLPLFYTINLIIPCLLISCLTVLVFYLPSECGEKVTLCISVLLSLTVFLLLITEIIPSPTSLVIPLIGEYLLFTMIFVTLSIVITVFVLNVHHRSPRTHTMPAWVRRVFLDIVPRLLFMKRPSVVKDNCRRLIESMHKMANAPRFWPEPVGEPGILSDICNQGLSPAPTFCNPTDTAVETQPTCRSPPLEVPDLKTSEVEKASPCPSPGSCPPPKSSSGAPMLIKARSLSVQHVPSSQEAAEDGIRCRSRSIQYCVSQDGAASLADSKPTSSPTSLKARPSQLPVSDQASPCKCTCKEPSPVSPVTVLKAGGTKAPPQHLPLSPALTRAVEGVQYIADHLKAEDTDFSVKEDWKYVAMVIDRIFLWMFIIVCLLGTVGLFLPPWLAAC
Sequence (P12390 whole entry): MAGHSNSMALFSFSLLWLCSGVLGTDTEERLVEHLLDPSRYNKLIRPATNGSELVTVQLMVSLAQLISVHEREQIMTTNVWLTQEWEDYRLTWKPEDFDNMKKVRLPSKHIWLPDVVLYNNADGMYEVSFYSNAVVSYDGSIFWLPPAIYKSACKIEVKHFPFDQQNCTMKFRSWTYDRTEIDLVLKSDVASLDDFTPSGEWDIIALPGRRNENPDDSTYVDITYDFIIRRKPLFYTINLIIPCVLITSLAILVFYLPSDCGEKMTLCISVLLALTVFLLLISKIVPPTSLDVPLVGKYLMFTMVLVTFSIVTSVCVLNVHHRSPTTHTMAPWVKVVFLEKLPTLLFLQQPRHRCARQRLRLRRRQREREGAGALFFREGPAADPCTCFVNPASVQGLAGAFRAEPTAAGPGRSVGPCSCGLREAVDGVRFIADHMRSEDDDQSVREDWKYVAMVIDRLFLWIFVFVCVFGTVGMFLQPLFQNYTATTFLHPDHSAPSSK
pKi: −log10 of the molar value.
Decide by pKi: equal to or exceeding 5 means label 1, less means label 0.

Observe how each entry below is paired with its result.
MOLECULE	SUBJECT_OF_TEST	ASSIGNED_CLASS
C[N+]12CCC(CC1)C(c1ccc(N3CCOCC3)nc1)C2 (stereo unspecified)	Neuronal acetylcholine receptor; alpha4/beta2 (Rattus norvegicus, UniProt P09483+P12390)	label 0
C1=C(c2cccnc2)C2CCN1CC2	Neuronal acetylcholine receptor; alpha4/beta2 (Rattus norvegicus, UniProt P09483+P12390)	label 1
c1cc(N2CCOCC2)ncc1C1CN2CCC1CC2 (stereo unspecified)	Neuronal acetylcholine receptor; alpha4/beta2 (Rattus norvegicus, UniProt P09483+P12390)	label 0

Record C[N+]12C=C(c3ccc(N4CCOCC4)nc3)C(CC1)CC2 ; criterion: pKi no lower than 5. Met?
label 0

Record C1=C(c2ccc(N3CCOCC3)nc2)C2CCN1CC2 ; criterion: pKi no lower than 5. Met?
label 1

---

biological target: Neuronal acetylcholine receptor subunit alpha-7 (Rattus norvegicus); experiment: Displacement of [3H]MLA from rat alpha7 nAChR
Sequence (Q05941 whole entry): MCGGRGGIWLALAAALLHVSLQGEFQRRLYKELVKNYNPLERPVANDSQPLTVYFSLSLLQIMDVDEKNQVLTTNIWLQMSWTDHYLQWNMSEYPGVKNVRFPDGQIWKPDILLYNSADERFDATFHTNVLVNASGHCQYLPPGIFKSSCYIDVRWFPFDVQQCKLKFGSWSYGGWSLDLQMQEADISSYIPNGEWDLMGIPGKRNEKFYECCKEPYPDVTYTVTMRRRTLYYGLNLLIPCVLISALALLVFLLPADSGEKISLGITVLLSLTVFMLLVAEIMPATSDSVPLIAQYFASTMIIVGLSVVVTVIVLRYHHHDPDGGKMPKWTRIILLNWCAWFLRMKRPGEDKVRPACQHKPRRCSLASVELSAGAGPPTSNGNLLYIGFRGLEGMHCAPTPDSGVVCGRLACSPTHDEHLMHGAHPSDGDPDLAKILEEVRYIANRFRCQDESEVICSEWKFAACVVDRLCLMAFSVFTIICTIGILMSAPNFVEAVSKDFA
PARAMETER: Ki (nM)
Please state the figure in nM; there is no need to write the unit.

Field request: Ki | item: C1=C(c2cccnc2)C2CCN1CC2
85

---

target: Neuronal acetylcholine receptor subunit alpha-7 (Rattus norvegicus); test: Displacement of [125I]alpha-bungarotoxin from rat alpha7 nAChR
Below, each entry is listed with its recorded pKi.
Note on units: pKi is unitless, being -log10 of a concentration expressed in mol/L.

COMPOUND	pKi
C1=C(c2cccnc2)C2CCN1CC2	6.85
c1cc(N2CCOCC2)ncc1C1CN2CCC1CC2 (stereo unspecified)	6.46
C[N+]12C=C(c3ccc(N4CCOCC4)nc3)C(CC1)CC2	5.25

Hi! What's the reported pKi for C[N+]12CCC(CC1)C(c1ccc(N3CCOCC3)nc1)C2 (stereo unspecified) on Neuronal acetylcholine receptor subunit alpha-7 (Rattus norvegicus)?
5.21

Hi! What's the reported pKi for C1=C(c2ccc(N3CCOCC3)nc2)C2CCC1N2 (stereo unspecified) on Neuronal acetylcholine receptor subunit alpha-7 (Rattus norvegicus)?
4.48

Hi! What's the reported pKi for C1=C(c2ccc(N3CCOCC3)nc2)C2CCN1CC2 on Neuronal acetylcholine receptor subunit alpha-7 (Rattus norvegicus)?
6.40
